target: mTOR (Homo sapiens, UniProt P42345); construct: purchased Invitrogen PV4754; experiment: mTOR assay (LanthaScreen kinase activity assay); format: biochemical; conditions: read-out: mTOR IC50 (in parentheses)
Sequence (P42345 1360-2549 limits assumed): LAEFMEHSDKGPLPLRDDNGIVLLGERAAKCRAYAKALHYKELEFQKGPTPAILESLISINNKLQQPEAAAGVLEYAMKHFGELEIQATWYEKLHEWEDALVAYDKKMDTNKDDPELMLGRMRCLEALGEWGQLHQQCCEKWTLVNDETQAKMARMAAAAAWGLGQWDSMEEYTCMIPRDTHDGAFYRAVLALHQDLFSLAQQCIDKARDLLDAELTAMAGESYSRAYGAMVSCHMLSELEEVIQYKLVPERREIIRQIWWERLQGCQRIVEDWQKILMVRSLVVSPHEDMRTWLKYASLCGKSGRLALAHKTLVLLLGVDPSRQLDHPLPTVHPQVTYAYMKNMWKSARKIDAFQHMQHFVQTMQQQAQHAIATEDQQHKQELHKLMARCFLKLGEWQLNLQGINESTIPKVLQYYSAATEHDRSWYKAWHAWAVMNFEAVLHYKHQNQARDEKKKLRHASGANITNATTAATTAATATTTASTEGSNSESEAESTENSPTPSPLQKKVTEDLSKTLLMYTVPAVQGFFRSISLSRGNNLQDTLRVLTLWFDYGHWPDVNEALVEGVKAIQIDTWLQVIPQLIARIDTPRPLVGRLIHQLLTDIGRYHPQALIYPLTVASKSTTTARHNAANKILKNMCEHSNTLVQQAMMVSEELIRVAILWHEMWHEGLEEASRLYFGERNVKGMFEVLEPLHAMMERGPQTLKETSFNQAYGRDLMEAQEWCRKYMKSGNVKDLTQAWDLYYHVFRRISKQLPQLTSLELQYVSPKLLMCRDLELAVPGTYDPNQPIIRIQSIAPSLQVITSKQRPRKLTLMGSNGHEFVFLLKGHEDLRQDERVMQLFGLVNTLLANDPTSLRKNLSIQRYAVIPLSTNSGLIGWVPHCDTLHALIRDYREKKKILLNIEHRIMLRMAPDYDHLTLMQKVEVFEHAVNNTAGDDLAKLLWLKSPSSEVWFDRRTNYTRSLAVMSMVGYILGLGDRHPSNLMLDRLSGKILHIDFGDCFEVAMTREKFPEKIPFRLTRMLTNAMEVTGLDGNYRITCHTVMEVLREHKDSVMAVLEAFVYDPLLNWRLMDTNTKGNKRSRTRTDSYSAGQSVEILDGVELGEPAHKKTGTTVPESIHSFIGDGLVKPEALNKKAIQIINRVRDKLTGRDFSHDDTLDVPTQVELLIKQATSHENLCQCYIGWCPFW
pIC50: −log10 of the molar value.
The following compounds are shown together with reported pIC50 values.

SMILES ENTRY | pIC50
COc1ncc2cc1NS(=O)(=O)c1ccc(F)c(c1)C(=O)NCC1=CC=C(S1)c1ncnc3c1SC2=C3C | 7.25
COCCOc1ccc2cc1C(=O)NCC1=CC=C(S1)c1ncnc3c1SC(=C3)c1cnc(OC)c(c1)NS2(=O)=O | 7.49
COc1ncc2cc1NS(=O)(=O)c1ccc(Cl)c(c1)C(=O)NCC1=CC=C(S1)c1ccnc3c1SC2=C3C | 7.55

* * *

Each entry below carries its reported IC50.
target: PIM-1 (Homo sapiens); construct: histidine tag (C); made in house; assay: PIM-1 biochemical assay (ADP Hunter); conditions: PIM1; read-out: PIM-1 actual IC50 (in parentheses)
Sequence (P11309 whole entry): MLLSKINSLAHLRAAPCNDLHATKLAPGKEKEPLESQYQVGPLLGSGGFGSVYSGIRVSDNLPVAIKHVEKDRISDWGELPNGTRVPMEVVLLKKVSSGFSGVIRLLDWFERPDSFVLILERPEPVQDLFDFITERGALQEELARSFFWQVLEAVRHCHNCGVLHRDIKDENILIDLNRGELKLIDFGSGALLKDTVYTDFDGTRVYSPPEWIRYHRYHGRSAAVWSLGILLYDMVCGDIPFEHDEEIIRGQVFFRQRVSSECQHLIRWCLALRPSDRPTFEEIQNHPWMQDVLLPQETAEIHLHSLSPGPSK
READOUT NAME: IC50

SMILES ENTRY | READOUT NAME | RESULT
COc1ncc2cc1NS(=O)(=O)c1cccc(c1)C(=O)NCC1=CC=C(S1)c1ncnc3c1SC2=C3 | IC50 | 12 nM
COc1ncc2cc1NS(=O)(=O)c1ccc(F)c(c1)C(=O)NCC1=CC=C(S1)c1ncnc3c1SC2=C3 | IC50 | 13 nM
COc1ncc2cc1NS(=O)(=O)c1cccc(c1)C(=O)NCC1=CC=C(S1)c1ccnc3c1SC2=C3 | IC50 | 15 nM
COc1ncc2cc1NS(=O)(=O)c1cccc(c1)C(=O)NCC1=CC=C(S1)c1c(C#N)cnc3c1SC2=C3 | IC50 | 45 nM

* * *

biological target: PI3K (p110α/p85α) (Homo sapiens); construct: purchased Carna Biosciences 07CBS-0402A; test: PI3K activity assay (ADP Hunter Plus); assay type: biochemical; conditions: read-out: PI3K alpha activity, IC50 (semi-quantitative class)
Parameter IC50: see the listing below.

MOLECULE | IC50
COc1ncc2cc1NS(=O)(=O)c1cc(c(F)cc1F)C(=O)NCc1cncc(c1)-c1ncnc3c1SC2=C3 [compound 44] | 100 to 1000 nM
COc1ncc2cc1NS(=O)(=O)c1cccc(c1)C(=O)NCc1cc(ccn1)-c1ncnc3c1SC2=C3 [compound 42] | 100 to 1000 nM
COc1ncc2cc1NS(=O)(=O)c1cccc(c1)C(=O)NCC1=CC=C(S1)c1ncnc3c1SC2=C3C [compound 68] | < 100 nM
COc1ncc2cc1NS(=O)(=O)c1cccc(c1)C(=O)NCCN1CC=C(CC1)c1cnc3ccc-2nn13 [compound 23] | < 100 nM

* * *

Reported IC50 values follow for various compounds
Molecular target: PI3K (p110α/p85α) (Homo sapiens, UniProt P42336)
Construct: purchased Carna Biosciences 07CBS-0402A
Sequence (P42336 whole entry): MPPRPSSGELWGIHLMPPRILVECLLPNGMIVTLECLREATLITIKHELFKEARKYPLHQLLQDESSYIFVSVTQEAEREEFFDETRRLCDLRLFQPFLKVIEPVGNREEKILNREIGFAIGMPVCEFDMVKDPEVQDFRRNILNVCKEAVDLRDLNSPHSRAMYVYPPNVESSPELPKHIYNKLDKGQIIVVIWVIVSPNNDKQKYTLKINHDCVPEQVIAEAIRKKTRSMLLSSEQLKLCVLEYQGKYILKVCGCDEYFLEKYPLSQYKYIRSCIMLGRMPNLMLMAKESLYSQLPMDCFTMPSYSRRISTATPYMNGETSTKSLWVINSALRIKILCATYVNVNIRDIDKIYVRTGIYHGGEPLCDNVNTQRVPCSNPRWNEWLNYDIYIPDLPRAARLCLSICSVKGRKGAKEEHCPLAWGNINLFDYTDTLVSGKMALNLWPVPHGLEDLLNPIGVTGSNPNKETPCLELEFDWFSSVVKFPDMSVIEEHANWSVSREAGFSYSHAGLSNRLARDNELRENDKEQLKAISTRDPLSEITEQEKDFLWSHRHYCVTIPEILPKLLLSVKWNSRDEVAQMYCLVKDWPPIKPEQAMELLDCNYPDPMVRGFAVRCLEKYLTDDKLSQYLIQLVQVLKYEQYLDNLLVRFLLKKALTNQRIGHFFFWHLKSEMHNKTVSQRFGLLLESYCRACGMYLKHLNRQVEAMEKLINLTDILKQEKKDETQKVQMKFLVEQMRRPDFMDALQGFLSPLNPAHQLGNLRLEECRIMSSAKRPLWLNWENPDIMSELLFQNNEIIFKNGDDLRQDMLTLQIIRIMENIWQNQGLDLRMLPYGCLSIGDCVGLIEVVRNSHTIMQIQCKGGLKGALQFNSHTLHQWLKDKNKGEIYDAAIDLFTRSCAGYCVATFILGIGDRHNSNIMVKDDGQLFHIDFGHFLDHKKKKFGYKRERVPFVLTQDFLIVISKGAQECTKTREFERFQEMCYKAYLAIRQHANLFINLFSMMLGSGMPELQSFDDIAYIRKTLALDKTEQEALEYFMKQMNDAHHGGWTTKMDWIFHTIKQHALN
Sequence (P27986 whole entry partner): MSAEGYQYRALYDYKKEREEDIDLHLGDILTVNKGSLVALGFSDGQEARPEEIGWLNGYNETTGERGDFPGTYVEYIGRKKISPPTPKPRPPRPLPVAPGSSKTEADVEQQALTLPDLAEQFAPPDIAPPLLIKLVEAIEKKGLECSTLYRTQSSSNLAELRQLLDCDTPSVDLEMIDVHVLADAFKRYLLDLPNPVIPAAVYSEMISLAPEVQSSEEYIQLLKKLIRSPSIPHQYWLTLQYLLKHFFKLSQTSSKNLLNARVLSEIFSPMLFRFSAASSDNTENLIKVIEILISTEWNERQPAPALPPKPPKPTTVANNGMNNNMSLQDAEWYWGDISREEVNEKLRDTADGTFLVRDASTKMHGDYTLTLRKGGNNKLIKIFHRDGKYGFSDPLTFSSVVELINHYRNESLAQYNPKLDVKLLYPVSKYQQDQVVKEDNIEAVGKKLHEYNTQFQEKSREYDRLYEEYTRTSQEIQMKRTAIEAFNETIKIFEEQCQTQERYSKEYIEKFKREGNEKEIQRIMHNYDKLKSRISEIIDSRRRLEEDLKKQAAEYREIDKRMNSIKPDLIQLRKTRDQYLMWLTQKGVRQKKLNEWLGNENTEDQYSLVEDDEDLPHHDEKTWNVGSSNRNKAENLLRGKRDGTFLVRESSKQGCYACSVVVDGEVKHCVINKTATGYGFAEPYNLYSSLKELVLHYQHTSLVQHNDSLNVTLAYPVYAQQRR
Test: PI3K activity assay (ADP Hunter Plus)
Format: biochemical
Conditions: read-out: PI3K alpha actual IC50 (in parentheses)
Procedure: The kinase activity was measured by using the commercial ADP Hunter™ Plus assay available from DiscoveRx (#33-016), which is a homogeneous assay to measure the accumulation of ADP, a universal product of kinase activity. […] Reaction was carried out for 1 hour at 25° C. […] Fluorescence counts were read in a Victor instrument (Perkin Elmer) with the recommended settings (544 and 580 nm as excitation and emission wavelengths, respectively). […]
READOUT NAME: IC50

SMILES ENTRY | STUDY SYSTEM | RESULT
COc1ncc2cc1NS(=O)(=O)c1cccc(c1)C(=O)NCC1CCN(CC1)c1ccnc3ccc-2cc13 | PI3K (p110α/p85α) (Homo sapiens, UniProt P42336) | 11 nM
COc1ncc2cc1NS(=O)(=O)c1cccc(c1)C(=O)NCCn1cc(cn1)-c1ncnc3c1SC2=C3C | PI3K (p110α/p85α) (Homo sapiens, UniProt P42336) | 0.8 nM
COc1ncc2cc1NS(=O)(=O)c1cccc(c1)C(=O)NCc1cccc(c1)-c1ccnc3ccc-2cc13 | PI3K (p110α/p85α) (Homo sapiens, UniProt P42336) | 1.6 nM
COc1ncc2cc1NS(=O)(=O)c1cccc(c1)C(=O)NCCn1cc(cn1)-c1cnc3ccc-2cn13 | PI3K (p110α/p85α) (Homo sapiens, UniProt P42336) | 7.6 nM
COc1ncc2cc1NS(=O)(=O)c1cccc(c1)C(=O)N(C)CC1CCN(CC1)c1ccnc3ccc-2cc13 | PI3K (p110α/p85α) (Homo sapiens, UniProt P42336) | 3 nM
COc1ncc2cc1NS(=O)(=O)c1cccc(c1)C(=O)NCCN1CC=C(CC1)c1cnc3ccc-2cn13 | PI3K (p110α/p85α) (Homo sapiens, UniProt P42336) | 3 nM
COc1ncc2cc1NS(=O)(=O)c1cc(c(F)cc1F)C(=O)NCc1cccc(c1)-c1cnn3ccc-2nc13 | PI3K (p110α/p85α) (Homo sapiens, UniProt P42336) | 0.5 nM
COc1ncc2cc1NS(=O)(=O)c1cccc(c1)C(=O)NCc1cccc(c1)-c1ncnc3ccc-2cc13 | PI3K (p110α/p85α) (Homo sapiens, UniProt P42336) | 0.1 nM
COc1ncc2cc1NS(=O)(=O)c1cc(c(F)cc1F)C(=O)NCc1cncc(c1)-c1ccnc3ccc-2nc13 | PI3K (p110α/p85α) (Homo sapiens, UniProt P42336) | 0.15 nM
COc1ncc2cc1NS(=O)(=O)c1cccc(c1)C(=O)NCc1cccc(c1)-c1cnc3sc-2nn13 | PI3K (p110α/p85α) (Homo sapiens, UniProt P42336) | 9 nM
COc1ncc2cc1NS(=O)(=O)c1cccc(c1)C(=O)NCc1cncc(c1)-c1c[nH]c3ncc-2cc13 | PI3K (p110α/p85α) (Homo sapiens, UniProt P42336) | 80 nM
COc1ncc2cc1NS(=O)(=O)c1ccc(F)c(c1)C(=O)NCc1cncc(c1)-c1ncnc3c1SC2=C3 | PI3K (p110α/p85α) (Homo sapiens, UniProt P42336) | 48 nM
COc1ncc2cc1NS(=O)(=O)c1cccc(c1)C(=O)NCC1=CC=C(S1)c1ncnc3c1SC2=C3C | PI3K (p110α/p85α) (Homo sapiens, UniProt P42336) | 2.5 nM
COc1ncc2cc1NS(=O)(=O)c1cccc(c1)C(=O)NCCn1cc(cn1)-c1cnn3ccc-2nc13 | PI3K (p110α/p85α) (Homo sapiens, UniProt P42336) | 4 nM

* * *

test: Pharmacokinetic in BALB-c female mice, i.v. and oral; type: in vivo; details: mouse, iv, I.V, dose 1.00 mg/Kg, plasma, read-out: T½ last (plasmatic half life) (converted)

SMILES ENTRY | half-life / min
COc1ncc2cc1NS(=O)(=O)c1cccc(c1)C(=O)N1CCc3ccc(cc3C1)-c1ccnc3ccc-2cc13 | 99.6

* * *

assay: Pharmacokinetic in BALB-c female mice, i.v. and oral; format: in vivo; settings: I.V, dose 5.00 mg/Kg, plasma

COMPOUND | T½ last (plasmatic half life) [min]
COc1ncc2cc1NS(=O)(=O)c1cc(c(F)cc1F)C(=O)NCc1cncc(c1)-c1ccnc3ccc-2cc13 [compound 10] | 34.2

* * *

target: PIM-1 (Homo sapiens); construct: histidine tag (C); made in house; assay: PIM-1 biochemical assay (ADP Hunter); details: PIM1; read-out: PIM-1 actual IC50 (in parentheses)
pIC50: −log10 of the molar value.
READOUT NAME: pIC50

SMILES ENTRY | READOUT NAME | READOUT NUMBER
COc1ncc2cc1NS(=O)(=O)c1cccc(c1)C(=O)NCc1cncc(c1)-c1ncnc3c1SC2=C3 | pIC50 | 7.40
COc1ncc2cc1NS(=O)(=O)c1cccc(c1)C(=O)NC[C@@H]1CN(CCO1)c1ncnc3c1SC2=C3 | pIC50 | 7.06
COc1ncc2cc1NS(=O)(=O)c1cccc(c1)C(=O)NCc1cncc(c1)-c1ccnc3c1SC2=C3 | pIC50 | 7.51
COc1ncc2cc1NS(=O)(=O)c1cccc(c1)C(=O)NCC1=CC=C(S1)c1ncnc3c1SC2=C3C | pIC50 | 7.55
COc1ncc2cc1NS(=O)(=O)c1ccc(F)c(c1)C(=O)NCc1cncc(c1)-c1ncnc3c1SC2=C3 | pIC50 | 7.28
COc1ncc2cc1NS(=O)(=O)c1cccc(c1)C(=O)NCc1cncc(c1)-c1ncnc3c1SC2=C3C | pIC50 | 7.25
O=C1NCc2cc(ccn2)-c2ncnc3c2SC(=C3)c2cncc(c2)NS(=O)(=O)c2cccc1c2 | pIC50 | 7.39
COc1ncc2cc1NS(=O)(=O)c1cccc(c1)C(=O)NCc1csc(c1)-c1ncnc3c1SC2=C3 | pIC50 | 7.77

* * *

Target: mTOR (Homo sapiens, UniProt P42345)
Construct: purchased Invitrogen PV4754
Assay: mTOR assay (LanthaScreen kinase activity assay)
Format: biochemical
Details: read-out: mTOR activity (semi-quantitative IC50)
Method: The enzymatic mTOR activity was measured using a LanthaScreen™ kinase activity assay (Invitrogen). […] The concentration of the assay components were the following: 0.24 nM mTOR kinase, 400 nM 4EBP1-GFP, […] and serial dilutions of the compound (inhibitor) to be evaluated. […] The TR-FRET value (a dimensionless number) was calculated as the ratio of the acceptor signal (GFP, emission at 520 nm) to the donor signal (terbium, emission at 495 nm). […]
pIC50: −log10 of the molar value.
READOUT NAME: pIC50

COMPOUND | RESULT
COc1ncc2cc1NS(=O)(=O)c1cccc(c1)C(=O)NC[C@@H]1CCN(C1)c1ncnc3c1SC2=C3C [compound 94] | < 6.00
COc1ncc2cc1NS(=O)(=O)c1cccc(c1)C(=O)NCc1cc(ccn1)-c1cnc3sc-2nn13 [compound 96] | 6.00 to 7.00
COc1ncc2cc1NS(=O)(=O)c1cccc(c1)C(=O)NCC1=CC=C(S1)c1ccnc3c1SC2=C3C [compound 101] | < 6.00
COc1ncc2cc1NS(=O)(=O)c1cccc(c1)C(=O)NCC1=C(C)C=C(S1)c1ncnc3c1SC2=C3 [compound 88] | < 6.00

From: patent US9808466B2
